- Tested on: Maize (variety Claxxon)
- test: Pre-emergence safening on corn, seed treated with safener, general crop injury
- Format: in vivo
- settings: 250 g/ha compound of formula (I) sprayed the day after planting; seed treated with safener A at 0.2 g per kg seed; evaluated after 21 days; mean of two replicates
measurementKind: Percentage damage, corn treated with safener A (%)
Give bare numbers, in %.

# annotated cases, reported Percentage damage, corn treated with safener A shown
molecule	unit	reportedResult
CCCC(=O)N(c1ccccc1CN1CCCCC1=O)S(=O)(=O)C(F)(F)F	%	5
CCOC(=O)N(c1ccccc1CN1CCC(C)(C(F)(F)F)OC1=O)S(=O)(=O)C(F)(F)F (stereo not shown)	%	0
CCC(=O)N(c1ccccc1CN1CCCC(SC)C1=O)S(=O)(=O)C(F)(F)F (stereo not shown)	%	2.5
O=C1CCCCN1Cc1ccccc1NS(=O)(=O)C(F)(F)F	%	25
CC1(C)CC(=O)N(Cc2ccccc2NS(=O)(=O)C(F)(F)F)O1	%	0

Provide the reported Percentage damage, corn treated with safener A of each entry below, same order.
1. CC1(C)CC(=O)N(Cc2ccccc2N(C(=O)OCCl)S(=O)(=O)C(F)(F)F)O1
2. CC1(C(F)(F)F)CCN(Cc2ccccc2N(C(=O)OCCl)S(=O)(=O)C(F)(F)F)C(=O)O1 (stereo not shown)

1. 20
2. 0
